Data provenance is patent US20240199746A1.

- TARGET_SYSTEM: T1, Ax1 protein, extracellular domain (human, UniProt P30530 26-451)
- T1 construct: extracellular domain; also called Axl; Ark
- T1 sequence (looked up): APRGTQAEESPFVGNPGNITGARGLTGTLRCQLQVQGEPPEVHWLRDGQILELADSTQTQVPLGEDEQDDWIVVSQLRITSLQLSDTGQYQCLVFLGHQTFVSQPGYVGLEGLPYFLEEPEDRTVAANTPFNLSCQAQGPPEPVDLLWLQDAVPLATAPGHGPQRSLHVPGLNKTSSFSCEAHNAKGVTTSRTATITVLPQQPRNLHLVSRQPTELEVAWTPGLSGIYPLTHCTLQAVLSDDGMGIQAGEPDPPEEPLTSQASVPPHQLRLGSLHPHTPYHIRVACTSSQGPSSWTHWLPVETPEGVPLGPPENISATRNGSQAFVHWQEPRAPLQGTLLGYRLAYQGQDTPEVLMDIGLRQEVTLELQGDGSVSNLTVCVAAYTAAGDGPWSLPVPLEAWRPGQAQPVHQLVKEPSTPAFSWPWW
- PROCEDURE_DETAILS: ELISA, mutant diluted 1:3
MEASUREMENT_TYPE: Affinity ELISA CPE mutant ratio (1:3, pH 6.0/7.4)
// no unit string in output, number only

Use the examples below as a reference point.
BINDER	ASSAY_VALUE
HC-E102Y (antibody, V domains shown, CPE single point mutant) VH: EVQLVQSGAEVKKPGATVKISCKVSGYSFTGHTMNWIRQPPGKGLEWIGLIKPSNGGTSYNQKFKGRVTISADKSISTAYLQWSSLKASDTAMYYCAHGHYYSYFAMDYWGQGTLVTVSS VL: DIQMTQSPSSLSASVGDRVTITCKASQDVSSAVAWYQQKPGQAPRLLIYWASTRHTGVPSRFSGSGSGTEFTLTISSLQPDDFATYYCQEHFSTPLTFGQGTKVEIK	2.61
HC-W110L (antibody, V domains shown) VH: EVQLVQSGAEVKKPGATVKISCKVSGYSFTGHTMNWIRQPPGKGLEWIGLIKPSNGGTSYNQKFKGRVTISADKSISTAYLQWSSLKASDTAMYYCAHGHYESYFAMDYLGQGTLVTVSS VL: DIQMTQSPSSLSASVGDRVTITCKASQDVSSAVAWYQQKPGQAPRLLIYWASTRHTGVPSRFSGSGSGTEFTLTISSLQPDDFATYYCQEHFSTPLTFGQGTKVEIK	8.22

# Affinity ELISA CPE mutant ratio (1:3, pH 6.0/7.4) of HC-W110T (antibody, V domains shown) VH: EVQLVQSGAEVKKPGATVKISCKVSGYSFTGHTMNWIRQPPGKGLEWIGLIKPSNGGTSYNQKFKGRVTISADKSISTAYLQWSSLKASDTAMYYCAHGHYESYFAMDYTGQGTLVTVSS VL: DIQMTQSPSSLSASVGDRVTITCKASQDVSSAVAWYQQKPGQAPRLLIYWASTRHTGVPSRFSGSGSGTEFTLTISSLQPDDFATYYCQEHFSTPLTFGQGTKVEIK = 7.47
